Catalogue of RU readings, one per entry.
- testedTarget: T1, LAG3 Protein, Human, Recombinant (His Tag) (Sino Biological Catalog No. 16498-H08H) (human, UniProt P18627 23-450)
- T1 construct: Bought protein; also called hLAG3-His; LAG3-His; not shown: His tag
- T1 sequence (looked up): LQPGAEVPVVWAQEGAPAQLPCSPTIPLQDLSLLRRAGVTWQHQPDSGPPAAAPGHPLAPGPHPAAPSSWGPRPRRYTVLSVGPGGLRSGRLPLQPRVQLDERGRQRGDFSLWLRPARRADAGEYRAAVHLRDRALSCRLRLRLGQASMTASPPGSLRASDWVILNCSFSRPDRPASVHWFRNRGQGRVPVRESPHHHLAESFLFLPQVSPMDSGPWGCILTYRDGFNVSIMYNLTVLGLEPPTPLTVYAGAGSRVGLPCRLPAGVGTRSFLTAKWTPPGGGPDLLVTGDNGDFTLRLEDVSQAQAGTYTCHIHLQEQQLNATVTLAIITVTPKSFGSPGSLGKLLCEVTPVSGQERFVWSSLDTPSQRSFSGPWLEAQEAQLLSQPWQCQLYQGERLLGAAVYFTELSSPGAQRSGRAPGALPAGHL
- assayProcedure: SPR binning on LAG3-His; competitor 20
testReadout: RU (RU)

>  <binder>
sdAb No. 73 (VHH, Fc not described; also called sdAb 73; not shown: Fc part implied by anti-human Fc capture) VHH: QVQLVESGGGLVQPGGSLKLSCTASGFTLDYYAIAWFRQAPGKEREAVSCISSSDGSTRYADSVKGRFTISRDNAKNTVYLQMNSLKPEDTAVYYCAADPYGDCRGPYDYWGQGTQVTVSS

>  <reading>
-117

$$$$
>  <binder>
sdAb No. 27 (VHH, Fc of the tested form not described; also called sdAb 27; not shown: Fc part implied by anti-human Fc capture and anti-human IgG Fc detection) VHH: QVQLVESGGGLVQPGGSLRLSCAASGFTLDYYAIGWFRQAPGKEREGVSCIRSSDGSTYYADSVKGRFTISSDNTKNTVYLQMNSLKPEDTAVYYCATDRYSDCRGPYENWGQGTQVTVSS

>  <reading>
-11.7

$$$$
>  <binder>
sdAb No. 21 (VHH, Fc of the tested form not described; also called sdAb 21; not shown: Fc part implied by anti-human Fc capture) VHH: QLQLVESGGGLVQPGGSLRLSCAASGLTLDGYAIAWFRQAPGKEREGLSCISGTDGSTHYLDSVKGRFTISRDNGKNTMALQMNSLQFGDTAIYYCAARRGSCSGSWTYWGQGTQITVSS

>  <reading>
-12.6

$$$$
>  <binder>
sdAb No. 17 (VHH, Fc of the tested form not described; also called sdAb 17; not shown: Fc part implied by anti-human Fc capture and anti-human IgG1 Fc detection) VHH: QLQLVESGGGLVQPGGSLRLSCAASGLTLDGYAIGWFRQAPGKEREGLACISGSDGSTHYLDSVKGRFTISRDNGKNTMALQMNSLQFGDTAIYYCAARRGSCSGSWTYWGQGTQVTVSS

>  <reading>
-14.6

$$$$
